# assay_name: compound enhancement of TRAIL-induced cell killing – NB7 cells plus caspase-8, luminescence, panel, dose response (AID 652002)
# settings: NB7 neuroblastoma +caspase-8, no TRAIL, compound-alone cytotoxicity counter-screen, luminescence viability; NB7+Caspase-8; mean of runs
Calls of active or inactive are those of the source. How the calls were made is not given here.
reported_endpoint: EC50

Reference set, count: 3
>>> df
                    structure_smiles_string                   val
0  O=C(Oc1c(CN2CCOCC2)cc(Cl)c2cccnc12)c1cccs1  > 12.5 µM (inactive)
1  CN(C(=O)COC(=O)c1cnc(Cl)c(Cl)c1)C1CCCCC1  > 12.5 µM (inactive)
2  Cc1cc(NC(=O)C2CCCC2)nc2c1c(=O)oc1ccccc12  > 12.5 µM (inactive)

Any idea what EC50 was measured for `CCN(CC)S(=O)(=O)c1ccc(C(=O)OCC(=O)Nc2ccc(-c3nc4ccc(C)cc4s3)cc2)cc1` ? > 12.5 µM (inactive)

Any idea what EC50 was measured for `COC(=O)c1ccc(/C=C(\C#N)c2ccccn2)cc1` ? > 12.5 µM (inactive)

----------
# pEC50 per entry
# assay_name: compound enhancement of TRAIL-induced cell killing – NB7 cells plus caspase-8, luminescence, panel, dose response (AID 652002)
# settings: NB7 neuroblastoma +caspase-8, no TRAIL, compound-alone cytotoxicity counter-screen, luminescence viability; NB7+Caspase-8; run 2; single replicate panel EC50
pEC50: −log10 of the molar value.

                      molecule  reported_endpoint   val
0  O=C(NC1=NCCS1)c1cc2ccccc2o1              pEC50  5.37

Any idea what pEC50 was measured for `CN1C[C@@H]2[C@@H]3C(=O)N(Cc4ccccc4)C(=O)[C@@H]3[C@](Cc3ccccc3)(C1=O)N2C(=O)c1ccc(C(C)(C)C)cc1` ? < 4.90

Any idea what pEC50 was measured for `COCCCn1c(C(=O)Nc2ccc3c(c2)OCO3)cc2c(=O)n3cccc(C)c3nc21` ? < 4.90

Any idea what pEC50 was measured for `Cc1ccc(NC(=O)c2ccccc2O)cc1` ? 5.11

Any idea what pEC50 was measured for `CC(C)Cc1nc2oc3c(Cl)ncnc3c2c2c1CCCC2` ? < 4.90

----------
# tgt: Tumor necrosis factor receptor superfamily member 10B (Homo sapiens) (UniProt O14763)
# Sequence (O14763 whole entry, looked up): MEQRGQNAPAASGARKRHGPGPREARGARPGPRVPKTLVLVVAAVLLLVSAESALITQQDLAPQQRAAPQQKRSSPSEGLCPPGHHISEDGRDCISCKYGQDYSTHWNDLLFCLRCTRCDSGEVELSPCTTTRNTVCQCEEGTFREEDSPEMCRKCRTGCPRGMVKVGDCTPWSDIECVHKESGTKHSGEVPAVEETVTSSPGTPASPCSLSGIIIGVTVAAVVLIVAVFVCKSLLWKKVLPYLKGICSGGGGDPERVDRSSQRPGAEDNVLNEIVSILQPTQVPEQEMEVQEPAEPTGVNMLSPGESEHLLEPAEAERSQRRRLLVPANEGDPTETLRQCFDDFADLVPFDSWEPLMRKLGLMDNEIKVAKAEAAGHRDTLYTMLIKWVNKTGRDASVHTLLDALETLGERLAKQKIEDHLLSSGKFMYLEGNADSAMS
# assay_name: compound enhancement of TRAIL-induced cell killing – NB7 cells plus caspase-8, luminescence, panel, dose response (AID 652002)
# settings: NB7 neuroblastoma +caspase-8, TRAIL sensitization, luminescence viability; NB7+Caspase-8; with TRAIL, mean of runs
The source made the active and inactive calls. No rule for the calls is given here.
reported_endpoint: EC50

                                   compound  reported_endpoint                   val
0      CCOC(=O)c1ccc(N/C=C/C(=O)c2ccco2)cc1               EC50  > 12.5 µM (inactive)
1  Cc1c(P(=S)(c2ccccc2)c2ccccc2)[n+]2ccccc2n1CCc1ccccc1               EC50  > 12.5 µM (inactive)
2            C(=C\c1ccco1)/c1nc2ccccc2[nH]1               EC50  > 12.5 µM (inactive)
3  O=C(NNC(=O)c1cc(OCC(F)(F)F)ccc1OCC(F)(F)F)c1ccc(Cl)c(Cl)c1               EC50  > 12.5 µM (inactive)
4  CC(C)C[C@H](NC(=O)c1nc[nH]c1C(=O)N[C@@H](CCCCNC(=O)OC(C)(C)C)C(=O)OC(C)(C)C)C(=O)OCc1ccccc1               EC50  > 12.5 µM (inactive)

Any idea what EC50 was measured for `O=C(N/N=C/c1cccc(OC(=O)c2ccco2)c1)c1ccc(F)cc1` ? inactive

Any idea what EC50 was measured for C#Cc1ccc(NC(=O)C2(C)CCN2C(=O)Cc2ccc(C(C)C)cc2)cc1 (configuration not stated) ? > 12.5 µM (inactive)

Any idea what EC50 was measured for `CCN(CC)c1ccc(NC(=O)Nc2ccccc2)cc1` ? inactive

Any idea what EC50 was measured for `c1ccc(Nc2nnc(-c3cccnc3)s2)cc1` ? inactive

Any idea what EC50 was measured for `COC(=O)[C@]12CCCCC=C1N(Cc1cccc3ccccc13)C(=O)[C@H](CC(=O)NCc1ccc(OC)c(OC)c1)C2` ? inactive

Any idea what EC50 was measured for `COc1ccc(/C=N/Nc2nc3ccccc3c(=O)n2-c2ccccc2)cc1OC` ? inactive

Any idea what EC50 was measured for `CCOC(=O)c1cccc(-[n+]2c(-c3ccccc3)cc(-c3ccccc3)cc2-c2ccccc2)c1` ? > 12.5 µM (inactive)

Any idea what EC50 was measured for `CCN(CC)c1ccc(/C=N/NC(=O)c2ccco2)cc1` ? > 12.5 µM (inactive)

Any idea what EC50 was measured for `CN(C(=O)COC(=O)c1cnc(Cl)c(Cl)c1)C1CCCCC1` ? > 12.5 µM (inactive)

Any idea what EC50 was measured for `COc1ccc(/C(C)=N/Nc2nncc3ccccc23)cc1` ? inactive

Any idea what EC50 was measured for `O=c1cc(-c2ccccc2)nc2cc(-c3ccc(F)cc3)[nH]n12` ? > 12.5 µM (inactive)

Any idea what EC50 was measured for `Cc1cc2nc3ccc(N(C)C)cc3nc2cc1N` ? inactive
